- assayTarget: HLA-B*15:01
- protocolDetails: IEDB peptide-MHC binding, purified MHC/direct/fluorescence; filed as Kd, often an IC50 or EC50 that approximates it; bounds were set here for any values at or beyond the usual limits of such assays
- conditionDescription: source organism: Vibrio parahaemolyticus
pKd: −log10 of the molar value.
measuredProperty: pKd

Fill in: pKd of `EVDEGSDMM` is ___
≤ 4.70

----------
- assayTarget: HLA-B*18:01
- protocolDetails: IEDB peptide-MHC binding, purified MHC/competitive/fluorescence; filed as Kd, often an IC50 or EC50 that approximates it; bounds were set here for any values at or beyond the usual limits of such assays
- conditionDescription: source organism: Giardia lamblia ATCC 50803
pKd: −log10 of the molar value.
measuredProperty: pKd

Fill in: pKd of `TMNSRYYLV` is ___
≤ 4.70

----------
- assayTarget: HLA-A*26:01
- protocolDetails: IEDB peptide-MHC binding, purified MHC/direct/fluorescence; filed as Kd, often an IC50 or EC50 that approximates it; bounds were set here for any values at or beyond the usual limits of such assays
- conditionDescription: source organism: Mycobacterium tuberculosis
measuredProperty: Kd (nM)
Number only, in nM; omit the unit.

Query the reported Kd for HLA-A*26:01; item: `DVAAMSGYY`
3

----------
- assayTarget: HLA-B*40:01
- protocolDetails: IEDB peptide-MHC binding, purified MHC/competitive/fluorescence; filed as Kd, often an IC50 or EC50 that approximates it; bounds were set here for any values at or beyond the usual limits of such assays
- conditionDescription: source organism: Influenza A virus (A/nt/60/1968(H3N2))
measuredProperty: pKd
Field pKd (float): negative decimal logarithm of the concentration in molar.

Fill in: pKd of `NELGVPFHL` is ___
8.68

----------
Readings of pKd for the listed sequences
- assayTarget: HLA-B*27:05
- protocolDetails: IEDB peptide-MHC binding, purified MHC/direct/fluorescence; filed as Kd, often an IC50 or EC50 that approximates it; bounds were set here for any values at or beyond the usual limits of such assays
- conditionDescription: source organism: Yellow fever virus
pKd: −log10 of the molar value.

{"residues": "EVRLATMLF", "assayTarget": "HLA-B*27:05", "pKd": "≤ 4.70"}

Would you kindly look at the next entry?
Fill in: pKd of `YFHKRDMRL` is ___
≤ 4.70

----------
Readings of pKd for the listed sequences
- assayTarget: HLA-B*58:01
- protocolDetails: IEDB peptide-MHC binding, purified MHC/competitive/radioactivity; filed as Kd, often an IC50 or EC50 that approximates it; bounds were set here for any values at or beyond the usual limits of such assays
- conditionDescription: source organism: Dengue virus 4 Dominica/814669/1981
Field pKd (float): negative decimal logarithm of the concentration in molar.

// worked examples, pKd included
{"residues": "LTSTWVMYGT", "quantitativeReadout": 6.18}
{"residues": "FGSVGGLFTS", "quantitativeReadout": 6.66}

Fill in: pKd of `FVVDNVHTW` is ___
6.97

----------
- assayTarget: HLA-B*08:01
- protocolDetails: IEDB peptide-MHC binding, purified MHC/competitive/radioactivity; filed as Kd, often an IC50 or EC50 that approximates it; bounds were set here for any values at or beyond the usual limits of such assays
- conditionDescription: source organism: Dengue virus 2 Jamaica/1409/1983
Readings of log10 of Kd for the listed sequences
Hi team, quick reminder: these entries are log10 of Kd (nM).

// worked examples, log10 of Kd included
{"residues": "KWKSRLNAL", "assayTarget": "HLA-B*08:01", "log10 of Kd": 1.82}
{"residues": "IMDLEKRHVL", "assayTarget": "HLA-B*08:01", "log10 of Kd": 1.62}
{"residues": "ILNRRRRTA", "assayTarget": "HLA-B*08:01", "log10 of Kd": 2.17}
{"residues": "VGRQEKGKSL", "assayTarget": "HLA-B*08:01", "log10 of Kd": 3.50}
{"residues": "HVQRIETWIL", "assayTarget": "HLA-B*08:01", "log10 of Kd": 3.24}

Would you kindly look at the next entry?
Fill in: log10 of Kd of `SRSTSLSVSL` is ___
2.75
